# target.of.assay: SARS-CoV-2 spike protein on pseudotyped lentivirus (Wuhan Reference Pseudovirus) (SARS-CoV-2, UniProt P0DTC2 14-1273)
# assay.remarks: cell-based or functional assay
# binarize infectivity % under 10 ug/mL VHH treatment: threshold 60% inclusive, high side Satisfied, low side Not satisfied

Look over these answered cases.
binder: PP928 MBP-5HVZ-R1i-E7-H6 (VHH) VHH: QVQLVESGGGLVQPGGSLRLSCAASGTEYDISAAHWYRQAPGKQREWVAGVTSDNSTFYADSVKGRFTISRDNAKNTVYLQMNSLKPEDTAVYYCTATVKTSQYRYWGQGTQVTVSS
category.label: Satisfied
//
binder: PP1151 MBP-5HVZ-PAPA-R5d-B5-H6 (VHH, Form: Dimer) VHH: QVQLVESGGGLVQPGGSLRLSCAASGSRDSIVAMHWYRQAPGKGREGVAGITSRWVTYYADSVKGRFTISRDNAKNTVYLQMNSLKPEDTAVYYCNAPVYYDTEWYDIWGQGTQVTVSS
category.label: Not satisfied
//
binder: PP1133 MBP-4B0F-PAPA-R2d-A6-H6 (VHH, Form: Heptamer) VHH: QVQLVESGGGLVQPGGSLRLSCAASGSGASIGAMHWFRQAPGKGREWVASITSAGNTYYGDSVKGRFTISRDNAKNTVYLQMNSLKPEDTAVYYCNALAGANYESQWEEYNYWGQGTQVTVSS
category.label: Not satisfied
//
binder: PP912 MBP-5HVZ-S2b-G8-H6 (VHH, Form: Dimer) VHH: QVQLVESGGGLVQPGGSLRLSCAASGSIQSYEAMHWFRQAPGKAREWVAVITWGDSTQYGDSVKGRFTISRDNAKNTVYLQMNSLKPEDTAVYYCAADVRQGYSSWGQGTQVTVSS
category.label: Satisfied
//
binder: PP903 MBP-5HVZ-R1i-A11-H6 (VHH, Form: Dimer) VHH: QVQLVESGGGLVQPGGSLRLSCAASGSILQINAIHWFRQAPGKQREEVAAITSGGSTGYADSVKGRFTISRDNAKNTVYLQMNSLKPEDTAVYYCAATSTRGGLDSDYWGQGTQVTVSS
category.label: Not satisfied

// query Form field: infectivity % under 10 ug/mL VHH treatment at least 60%? Entry: PP826 MBP-R5C-A2-H6 (VHH, Form: Monomer) VHH: QVQLVESGGGLVQPGGSLRLSCAASGDIFSKNAMHWVRQAPGKQREFVAGIYSDGSSLYADSVKGRFTISRDNAKNTVYLQMNSLKPEDTAVYYCAALDYSARYRTWGQGTQVTVSS
// result Satisfied

// query Hi, just wondering whether PP1103 MBP-5HVZ-PAPA-RN-18-H6 (VHH, Form: Dimer) VHH: QVQLVESGGGLVQPGGSLRLSCAASGYYFQIVAMHWYRQAPGKEREGVAGITSTGSTYYGDSVKGRFTISRDNAKNTVYLQMNSLKPEDTAVYYCNAVSTDAQGAAEYWGQGTQVTVSS shows infectivity % under 10 ug/mL VHH treatment of 60% or higher.
// result Not satisfied

// query Is infectivity % under 10 ug/mL VHH treatment for PP1177 MPB-scTRP-PAPA-R2a-F3-H6 (VHH, Form: Trimer) VHH: QVQLVESGGGLVQPGGSLRLSCAASGSITSINWMHWFRQAPGKDREGVASISQTGRGSYADSVKGRFTISRDNAKNTVYLQMNSLKPEDTAVYYCAAASRTGTPYNYWGQGTQVTVSS at or above 60%?
// result Not satisfied
